- Test system: NCI-H23 lung
- test.name: NCI tumour cell line growth inhibition, 48 h
reported.metric: TGI

### Prompt Please report the measured TGI for COC(=O)/C=C(\C)CC(O)/C=C(\C)CCC=C(C)C (stereo not given)
### Response 74.9 µM

### Prompt Please report the measured TGI for Nc1nc(SC/C=C/c2ccccc2)c2[nH]cnc2n1
### Response > 100 µM

### Prompt Please report the measured TGI for O=C(O)Cc1cc(Cl)ccc1O
### Response > 100 µM

### Prompt Please report the measured TGI for CN(C)CCC(=O)c1ccccc1
### Response > 74 µM

### Prompt Please report the measured TGI for C=C(C)[C@@H]1CC[C@]2(C)[C@H](CC=C3[C@@H]4CC(C)(C)CC[C@]4(C(N)=O)CC[C@]32C)[C@@]1(C)CCC#N
### Response > 100 µM

### Prompt Please report the measured TGI for Cn1cc(C2=C(c3cn(CCCCO)c4ccccc34)C(=O)NC2=O)c2ccccc21
### Response > 25 µM

### Prompt Please report the measured TGI for CCOc1ccccc1NC(=O)C(=O)CC(=O)c1sc(Nc2nnc(-c3ccc(Cl)c(Cl)c3)o2)nc1C
### Response > 100 µM

### Prompt Please report the measured TGI for CC(O)C1(CNc2cc(Cl)nc(N)n2)CCC1 (stereo not given)
### Response > 100 µM

### Prompt Please report the measured TGI for CSc1nc(Nc2cccc(C(F)(F)F)c2)c2c(N)nn(C)c2n1
### Response > 100 µM

### Prompt Please report the measured TGI for N#Cc1c2ccccc2cn1-c1ccc(F)cc1
### Response 56.2 µM

### Prompt Please report the measured TGI for CNCC#Cc1c(F)ccc2c1/C(=C/c1[nH]ccc1OC)C(=O)N2
### Response 1.26 µM

### Prompt Please report the measured TGI for CC1CN(C(=O)CN2CCC(CCCCN(C)C)CC2)c2ccccc2NC1=O (stereo not given)
### Response > 100 µM

### Prompt Please report the measured TGI for O=C(CC1(O)C(=O)N(Cc2ccccc2)c2ccc(F)cc21)c1ccc(C(=O)NCC2CCC3(CC2)OOC2(CCCCC2)OO3)cc1 (stereo not given)
### Response 0.634 µM

### Prompt Please report the measured TGI for N#Cc1c(N)n(-c2cccc(C(=O)O)c2)c(=O)c2cc([N+](=O)[O-])ccc12
### Response > 100 µM

### Prompt Please report the measured TGI for Cc1nn(-c2ccccc2)c2c1C(c1ccc(Cl)cc1)NC(=S)N2 (stereo not given)
### Response 44.5 µM

### Prompt Please report the measured TGI for CC(=O)Oc1ccc2c(C)cc(=O)oc2c1OC(C)=O
### Response > 100 µM

### Prompt Please report the measured TGI for C[C@H](CCC(=O)O)[C@H]1CC[C@H]2[C@@H]3CC[C@@H]4C[C@H](O)CC[C@]4(C)[C@H]3C[C@H](O)[C@]12C
### Response > 100 µM

### Prompt Please report the measured TGI for CC1(CCOCc2ccccc2)NC(=O)NC1=O (stereo not given)
### Response > 100 µM

### Prompt Please report the measured TGI for NCCNc1c2c(c(NCCN)c3[nH]ccc13)C(=O)c1ccccc1C2=O
### Response 0.475 µM

### Prompt Please report the measured TGI for NNC(=O)c1n[nH]nc1C(=O)NN
### Response > 100 µM

====

- System: OVCAR-4 ovarian
- test.name: NCI tumour cell line growth inhibition, 48 h
Provide the recorded TGI for the entries that follow.

### Prompt Please report the measured TGI for C/C(Cc1ccccc1)=N\NC(N)=S
### Response > 100 µM

### Prompt Please report the measured TGI for COc1c(OC[C@H](O)CN2CCOCC2)ccc2c3n(c(=NC(=O)c4cccnc4C)nc12)CCN3
### Response > 50 µM

### Prompt Please report the measured TGI for COC1(OC)C(N(C)C)=C(Cl)C(=O)/C1=C/C=O
### Response > 100 µM

### Prompt Please report the measured TGI for Clc1ccc2[nH]cc(-c3nnnn3-c3ccccc3)c2c1
### Response > 100 µM

### Prompt Please report the measured TGI for O=C(/C=C/c1cc2ccccc2o1)N1CCN(c2ccccn2)CC1
### Response > 100 µM

### Prompt Please report the measured TGI for Cc1cc2oc(=N)c(C#N)c(C)c2cc1C
### Response > 100 µM

====

- Test system: UO-31 renal
- test.name: NCI tumour cell line growth inhibition, 48 h
Provide the recorded TGI for the entries that follow.

### Prompt Please report the measured TGI for CC(=O)c1sc(Nc2nnc(-c3ccc(-c4nnc(Nc5nc(C)c(C(C)=O)s5)o4)cc3)o2)nc1C
### Response > 10 µM

### Prompt Please report the measured TGI for O=C(Oc1ccccn1)c1cc2cc(CCl)ccc2oc1=O
### Response > 100 µM

### Prompt Please report the measured TGI for CCSc1ncnc2c1ncn2C1OC(CO)C(O)C1O (centres undefined)
### Response > 100 µM

### Prompt Please report the measured TGI for Cn1cc(NC(=O)Nc2cc(C(=O)Nc3cc(C(=O)Nc4ccc(S(=O)(=O)O)c5cc(S(=O)(=O)O)ccc45)n(C)c3)n(C)c2)cc1C(=O)Nc1cc(C(=O)Nc2ccc(S(=O)(=O)O)c3cc(S(=O)(=O)O)ccc23)n(C)c1
### Response > 100 µM

### Prompt Please report the measured TGI for Cn1cc(-c2csc(-c3c[nH]c4ccc(F)cc34)n2)c2cnccc21
### Response 2.73 µM

### Prompt Please report the measured TGI for CCC[CH2][Sn]([Cl])([CH2]CCC)[CH2]CCC
### Response 0.312 µM

### Prompt Please report the measured TGI for CCCN1C(=O)N(CCC)C2C1NC(=S)N2/N=C/C=C/c1ccccc1OC (centres undefined)
### Response > 100 µM

### Prompt Please report the measured TGI for CC(=O)c1[nH]c(NCc2ccccc2)c(C(=S)Nc2ccccc2)c1N
### Response 6.34 µM

### Prompt Please report the measured TGI for OCC1OC(c2nc(C3=NCCCN3)cs2)C(O)C1O (centres undefined)
### Response > 100 µM

====

- Test system: NCI-H226 lung
- test.name: NCI tumour cell line growth inhibition, 48 h
Where a SMILES comes first, the peptide text is derived from it. The star is where a group is joined. Cbz = O=C(OCc1ccccc1)*
Provide the recorded TGI for the entries that follow.

### Prompt Please report the measured TGI for N#Cc1c(-c2ccc(Cl)cc2Cl)nc2[nH][nH]c(=S)n2c1=O
### Response > 100 µM

### Prompt Please report the measured TGI for COc1cc(NS(C)(=O)=O)ccc1Nc1c2ccccc2nc2c1[nH]c1ccc(NC3OC(CO)C(O)C(O)C3O)cc12 (configuration not stated)
### Response 0.201 µM

### Prompt Please report the measured TGI for O=C(c1ccccc1)c1cc2ccccc2o1
### Response > 100 µM

### Prompt Please report the measured TGI for COC(=O)C(Cc1c[nH]c2ccccc12)NP(=O)(O)OCC1OC(n2cc(I)c(=O)[nH]c2=O)CC1O (configuration not stated)
### Response > 100 µM

### Prompt Please report the measured TGI for CN(C)CC1CCCC/C1=N/OC(=O)c1ccc(Cl)cc1 (configuration not stated)
### Response > 100 µM

### Prompt Please report the measured TGI for C#C[C@]1(O)CCC2C3CCc4cc(O)ccc4C3CC[C@@]21C (some centres not stated)
### Response 30.8 µM

### Prompt Please report the measured TGI for O=C(Nc1nc(=S)c2c(ncn2CCOC(=O)c2ccccc2)[nH]1)c1ccccc1
### Response > 100 µM

### Prompt Please report the measured TGI for COC(=O)/C=C(\C)CC(O)/C=C(\C)CCC=C(C)C (configuration not stated)
### Response > 100 µM

### Prompt Please report the measured TGI for S=c1sc2c(Cl)nc(Cl)nc2n1-c1ccccc1
### Response > 100 µM

### Prompt Please report the measured TGI for Cc1ncc(C(=O)Nc2ccc(CN3CCN(C)CC3)c(C(F)(F)F)c2)cc1C#Cc1cnc(N)c2ccncc12
### Response 14.3 µM

### Prompt Please report the measured TGI for COc1ccc(/C=C2\N=C(SC)N(CN3CCOCC3)C2=O)cc1
### Response > 100 µM

### Prompt Please report the measured TGI for CC(C)=CC[C@]12CCN[C@H]1N(S(=O)(=O)c1ccccc1)c1ccccc12
### Response 36.7 µM

### Prompt Please report the measured TGI for O=C(CCc1n[nH]c(=S)o1)Nc1ccccc1C(F)(F)F
### Response > 100 µM

### Prompt Please report the measured TGI for Cc1ccc(-n2c(N)c(C#N)c3[nH]nc(N)c3c2=O)cc1
### Response > 100 µM

### Prompt Please report the measured TGI for O=C(Cn1c[n+](CC(=O)c2ccc(-c3ccccc3)cc2)c2ccccc21)Nc1cccc2cccnc12
### Response 7.33 µM

### Prompt Please report the measured TGI for CCOC(=O)Nc1ccc(-c2nc(-c3cccc(OCCN4CCOCC4)c3)c(-c3ccnc(Br)c3)[nH]2)cc1
### Response > 100 µM

### Prompt Please report the measured TGI for Cc1ccc(NC(=O)CC2CC2)cc1-c1ccc(C(=O)NCC2CC2)cc1
### Response > 25 µM

### Prompt Please report the measured TGI for COc1ccc(-[n+]2nc(S(=O)(=O)O)c(/C=C/c3ccc(N(C)C)cc3)cc2C#N)cc1
### Response > 100 µM

### Prompt Please report the measured TGI for O=C(N[C@@H](c1ccc(Cl)c(Cl)c1)C1CNC1)c1ccc2cnccc2c1
### Response 5.43 µM

### Prompt Please report the measured TGI for c1ccc(CCNc2ccccn2)nc1
### Response > 100 µM

### Prompt Please report the measured TGI for COc1cc(-c2cc(-c3cc4c([nH]c5ccccc54)c(-c4cc(OC)c(OC)c(OC)c4)n3)cc(-c3ccccc3)n2)cc(OC)c1OC
### Response > 100 µM

### Prompt Please report the measured TGI for CN=C(N=Nc1c(O)[nH]c2ccccc12)SCC(=O)c1ccc(Br)cc1
### Response 48.4 µM

### Prompt Please report the measured TGI for O=C(c1ccccc1Br)C(F)(F)F
### Response > 100 µM

### Prompt Please report the measured TGI for COc1ccc(CC2NCCc3c2[nH]c2ccccc32)cc1 (configuration not stated)
### Response > 100 µM

### Prompt Please report the measured TGI for COc1cc2c3c(n(C)c(=O)c2cc1OC)-c1cc2c(cc1/C3=C\CN)OCO2
### Response 15.2 µM

### Prompt Please report the measured TGI for O=C(O)CCC(NC(=O)OCc1ccccc1)C(=O)NC(Cc1cnc[nH]1)C(=O)O (stereo not drawn) (Cbz-Glu-His-OH; configuration not given here)
### Response > 100 µM

### Prompt Please report the measured TGI for Nc1c(C(=O)Nc2ccncc2)sc2nc3c(cc12)CCCCCCCC3
### Response 2.03 µM

The reported measurements were obtained from PubChem BioAssay (NCI).
